# assayInfo: Irradiation experiments: photolytic cleavage of the 5' protective group with polychromatic light, followed by HPLC
# Type: physicochemical
# measurementConditions: 0.2 mM in MeOH/H2O 1:1, 20° to 30° C., λ>289 nm
resultType: Yield of deprotected nucleoside, in relation to maximum concentration achievable (% Cmax)

INSERT INTO results (molecule, valueobserved) VALUES
  ('Cc1cn([C@H]2C[C@H](O)[C@@H](COC(=O)OCC(Cl)c3ccccc3[N+](=O)[O-])O2)c(=O)[nH]c1=O (some centres unmarked) [Compound 11]', 97),
  ('COc1cc(CCOC(=O)OC[C@H]2O[C@@H](n3cc(C)c(=O)[nH]c3=O)C[C@@H]2O)c([N+](=O)[O-])cc1OC [Compound 9]', 77),
  ('Cc1cn([C@H]2C[C@H](O)[C@@H](COC(=O)OCCc3c(Cl)cc(Cl)cc3[N+](=O)[O-])O2)c(=O)[nH]c1=O [Compound 8]', 77),
  ('Cc1cn([C@H]2C[C@H](O)[C@@H](COC(=O)OCCc3c(Cl)cccc3[N+](=O)[O-])O2)c(=O)[nH]c1=O [Compound 4]', 86),
  ('Cc1cn([C@H]2C[C@H](O)[C@@H](COC(=O)OCCc3ccc(Cl)cc3[N+](=O)[O-])O2)c(=O)[nH]c1=O [Compound 6]', 70);

* * *

# assayInfo: Irradiation experiments: photolytic cleavage of the 5' protective group with polychromatic light, followed by HPLC
# Assay type: physicochemical
# measurementConditions: 0.2 mM in MeOH/H2O 1:1, 20° to 30° C., λ>289 nm
resultType: Yield of deprotected nucleoside, in relation to maximum concentration achievable (% Cmax)

Consider the following illustrative entries.
INSERT INTO measurements (molecule, valueobserved) VALUES
  ('Cc1cn([C@H]2C[C@H](O)[C@@H](COC(=O)OCc3ccc([N+](=O)[O-])cc3[N+](=O)[O-])O2)c(=O)[nH]c1=O [Compound V2, reference compound]', 38),
  ('Cc1cn([C@H]2C[C@H](O)[C@@H](COC(=O)OCCc3ccccc3[N+](=O)[O-])O2)c(=O)[nH]c1=O [Compound 1]', 79),
  ('Cc1cn([C@H]2C[C@H](O)[C@@H](COC(=O)OCCc3c(Br)cccc3[N+](=O)[O-])O2)c(=O)[nH]c1=O [Compound 5]', 89),
  ('Cc1cn([C@H]2C[C@H](O)[C@@H](COC(=O)OCCc3c([N+](=O)[O-])cccc3[N+](=O)[O-])O2)c(=O)[nH]c1=O [Compound 2]', 92);

1. Cc1cn([C@H]2C[C@H](O)[C@@H](COC(=O)OCC(C)c3ccccc3[N+](=O)[O-])O2)c(=O)[nH]c1=O (stereo partly drawn) [Compound 10]
2. Cc1cn([C@H]2C[C@H](O)[C@@H](COC(=O)OCc3ccccc3[N+](=O)[O-])O2)c(=O)[nH]c1=O [Compound V1, 5'-O-(2-nitrobenzyloxycarbonyl)thymidine, reference compound]
Problem: Compare 1 and 2 and name the one whose reported Yield of deprotected nucleoside, in relation to maximum concentration achievable is smaller. Return value: the label identifying the chosen record.
Solution: 2
(2: 55 % Cmax, 1: 89 % Cmax)
